assay: binders of probe aFGF10 on microarray, primary screen, stem cell growth factor project, biochemical, small-molecule microarray, fluorescence 635/667 (AID 1071); conditions: higher = more signal;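 further: score merges 667 nm spot intensity and signal to noise from triplicate slides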
Measurement Type: composite z-score

# Compound, Measured Value
rows = [
    ("O=C1C2C=CC(C(O)c3ccc(F)cc3)N(Nc3ccccc3F)C2C(=O)N1c1ccccc1 (centres undefined)", 0.439),
    ("CC(C)(C)OC(=O)CC[C@@]1(C(N)=O)N=C(c2ccc(OCCCO)cc2)O[C@@H]1c1ccccc1", 0.558),
    ("C=C(COC)/C(=C/C[C@@H](OC(C)=O)c1ccc(CO)o1)c1cnc2ccccc2c1", 1.11),
    ("CO[C@H]1O[C@H](CO)[C@@H](OC(=O)Nc2ccc(Br)cc2)[C@H](OC(=O)c2cc3ccccc3[nH]2)[C@H]1OC(=O)c1cc2ccccc2[nH]1", 0.724),
    ("COC(=O)C(CC#Cc1ccc2c(c1)[C@]1(C(=O)N2)[C@H](c2ccc(O)cc2)N2[C@H](c3ccccc3)[C@H](c3ccccc3)OC(=O)[C@H]2[C@@H]1C(=O)Nc1nc2ccccc2s1)C(=O)OC", 1.08),
    ("CCCCC(=C=CC[C@@H](O)c1ccccc1OCCO)CCO", 0.352),
    ("O=C(NCc1ccccc1)[C@@]1(Cc2ccccc2)N=C(c2ccc(OCCCO)cc2)O[C@H]1c1ccccc1", 0.177),
    ("O=C(O)[C@@]1(CCS(=O)(=O)c2ccccc2)COC(c2ccc(OCCCO)cc2)=N1", -0.0573),
    ("CC(CO)N1C(=O)[C@@H]2C3C(=O)OCCC/C=C\\[C@H]3OC23C=CCN(c2ccc4ccccc4c2)C(=O)[C@@H]13 (some centres undefined)", -0.594),
    ("COc1ccc(C#Cc2ccc3c(c2)[C@]2(C(=O)N3)[C@H](c3ccccc3OCCO)N3[C@H](c4ccccc4)[C@H](c4ccccc4)OC(=O)[C@H]3[C@@H]2C(=O)O)cc1", 1.16),
    ("O=C1O[C@H](c2ccccc2)[C@H](c2ccccc2)N2[C@H]1[C@@H](C(=O)O)[C@]1(C(=O)Nc3ccc(C#CC4=CCCCC4)cc31)[C@H]2c1ccccc1OCCO", 0.729),
    ("COCCCNC(=O)[C@@]1(Cc2ccccc2N=[N+]=[N-])N=C(c2ccc(OCCCO)cc2)O[C@H]1c1ccccc1N=[N+]=[N-]", 0.436),
    ("Cc1ccc(S[C@]2(C(=O)NC(C)C)CC(=O)N(Cc3ccccc3Cl)[C@@H]2c2ccc(CO)cc2I)cc1", -0.719),
    ("COCCOC(=O)N1C(=O)[C@@]2(c3cc(C#Cc4ccc(OC)cc4)ccc31)[C@H](C(N)=O)[C@H]1C(=O)O[C@H](c3ccccc3)[C@H](c3ccccc3)N1[C@@H]2c1ccccc1OCCO", 1.11),
]
